Attribution: ChEMBL document CHEMBL4350965

tested on: Phosphatidylinositol 4,5-bisphosphate 3-kinase catalytic subunit delta isoform (Homo sapiens, UniProt O00329)
Sequence (O00329 whole entry, canonical isoform): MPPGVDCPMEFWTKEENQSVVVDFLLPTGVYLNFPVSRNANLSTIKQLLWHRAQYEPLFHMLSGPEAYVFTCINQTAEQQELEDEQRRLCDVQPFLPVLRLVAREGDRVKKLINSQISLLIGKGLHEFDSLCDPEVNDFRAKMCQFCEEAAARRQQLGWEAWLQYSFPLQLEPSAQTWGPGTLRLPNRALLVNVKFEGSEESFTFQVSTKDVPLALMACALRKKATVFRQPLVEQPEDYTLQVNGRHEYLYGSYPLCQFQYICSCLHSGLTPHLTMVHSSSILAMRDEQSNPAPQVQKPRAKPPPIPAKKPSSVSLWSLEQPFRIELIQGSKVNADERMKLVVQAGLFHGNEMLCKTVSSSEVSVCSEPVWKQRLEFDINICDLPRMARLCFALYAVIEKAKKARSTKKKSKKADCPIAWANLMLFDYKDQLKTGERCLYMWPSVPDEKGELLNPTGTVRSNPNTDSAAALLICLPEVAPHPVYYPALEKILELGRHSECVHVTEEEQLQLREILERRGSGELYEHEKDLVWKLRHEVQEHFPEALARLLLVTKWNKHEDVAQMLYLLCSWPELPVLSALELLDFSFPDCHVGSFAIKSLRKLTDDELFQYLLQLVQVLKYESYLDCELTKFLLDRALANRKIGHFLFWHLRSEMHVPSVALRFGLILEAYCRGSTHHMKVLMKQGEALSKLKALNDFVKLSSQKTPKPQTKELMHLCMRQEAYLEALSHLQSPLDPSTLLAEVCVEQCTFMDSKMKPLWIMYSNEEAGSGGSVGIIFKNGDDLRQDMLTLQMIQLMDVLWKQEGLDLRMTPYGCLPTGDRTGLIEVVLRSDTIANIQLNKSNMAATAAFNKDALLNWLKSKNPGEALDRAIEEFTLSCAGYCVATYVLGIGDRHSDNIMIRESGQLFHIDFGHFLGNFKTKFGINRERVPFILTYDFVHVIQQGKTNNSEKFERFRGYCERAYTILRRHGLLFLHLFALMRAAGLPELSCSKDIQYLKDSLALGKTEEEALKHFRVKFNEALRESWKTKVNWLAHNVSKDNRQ
test protocol: Inhibition of PI3Kdelta in human Ramos cells assessed as reduction in antihuman IgM-stimulated AKT phosphorylation at Ser473 residue preincubated for 60 mins followed by antihuman IgM stimulation and measured after 15 mins
Format: cell-based
For each entry below, report its IC50 value.
Answers are plain numbers, in nM.

Examples with answers:
| query smiles | unit | IC50 |
| --- | --- | --- |
| N#Cc1cnc(N)nc1N1CC[C@H]1c1nn2ccc(Cl)c2c(=O)n1-c1ccccc1 | nM | 16 |
| CC(=O)c1c[nH]c2ncnc(N3CC[C@H]3c3nn4ccc(Cl)c4c(=O)n3-c3ccccc3)c12 | nM | 21 |
| N#Cc1cnc(N)nc1N1CCC[C@H]1c1nn2ccc(Cl)c2c(=O)n1-c1ccccc1 | nM | 3 |
| O=c1c2c(Cl)ccn2nc([C@@H]2C[C@H](F)CN2c2ncnc3[nH]cnc23)n1-c1ccccc1 | nM | 1 |
| CC(=O)c1c[nH]c2ncnc(N3CCC[C@H]3c3nn4ccc(F)c4c(=O)n3-c3ccccc3)c12 | nM | 5 |
| N#Cc1c[nH]c2ncnc(N3CCC[C@H]3c3nn4cccc4c(=O)n3-c3ccccc3)c12 | nM | 3 |

// batch mode: one IC50 value per listed entry
1. CC(=O)c1c[nH]c2ncnc(N3CCC[C@H]3c3nn4ccc(Cl)c4c(=O)n3-c3cccc(F)c3)c12
2. N#Cc1c[nH]c2ncnc(N3CC[C@H]3c3nn4ccc(Cl)c4c(=O)n3-c3ccccc3)c12

RESULT:
1. 3
2. 21

###

tested on: PI3K p110 beta/p85 alpha (Homo sapiens, UniProt P42338)
Sequence (P27986 whole entry): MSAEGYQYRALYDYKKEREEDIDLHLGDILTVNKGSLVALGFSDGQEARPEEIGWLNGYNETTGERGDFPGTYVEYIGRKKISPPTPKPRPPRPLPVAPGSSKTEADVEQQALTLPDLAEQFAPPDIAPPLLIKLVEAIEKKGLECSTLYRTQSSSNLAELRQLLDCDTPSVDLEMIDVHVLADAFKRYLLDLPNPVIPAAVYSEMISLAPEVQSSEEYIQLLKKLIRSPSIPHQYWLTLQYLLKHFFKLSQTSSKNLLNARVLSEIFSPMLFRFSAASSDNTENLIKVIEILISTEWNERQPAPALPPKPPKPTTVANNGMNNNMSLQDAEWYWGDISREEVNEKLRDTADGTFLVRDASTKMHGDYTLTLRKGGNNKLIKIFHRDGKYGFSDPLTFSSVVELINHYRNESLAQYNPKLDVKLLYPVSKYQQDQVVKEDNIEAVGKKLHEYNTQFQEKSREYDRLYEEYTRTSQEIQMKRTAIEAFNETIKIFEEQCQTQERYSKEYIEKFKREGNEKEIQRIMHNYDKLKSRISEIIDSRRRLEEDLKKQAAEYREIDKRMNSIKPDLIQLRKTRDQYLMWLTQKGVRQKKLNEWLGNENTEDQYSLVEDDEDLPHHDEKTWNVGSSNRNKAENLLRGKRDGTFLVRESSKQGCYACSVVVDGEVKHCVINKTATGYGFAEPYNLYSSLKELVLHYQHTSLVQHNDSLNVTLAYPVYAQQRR
Sequence (P42338 whole entry): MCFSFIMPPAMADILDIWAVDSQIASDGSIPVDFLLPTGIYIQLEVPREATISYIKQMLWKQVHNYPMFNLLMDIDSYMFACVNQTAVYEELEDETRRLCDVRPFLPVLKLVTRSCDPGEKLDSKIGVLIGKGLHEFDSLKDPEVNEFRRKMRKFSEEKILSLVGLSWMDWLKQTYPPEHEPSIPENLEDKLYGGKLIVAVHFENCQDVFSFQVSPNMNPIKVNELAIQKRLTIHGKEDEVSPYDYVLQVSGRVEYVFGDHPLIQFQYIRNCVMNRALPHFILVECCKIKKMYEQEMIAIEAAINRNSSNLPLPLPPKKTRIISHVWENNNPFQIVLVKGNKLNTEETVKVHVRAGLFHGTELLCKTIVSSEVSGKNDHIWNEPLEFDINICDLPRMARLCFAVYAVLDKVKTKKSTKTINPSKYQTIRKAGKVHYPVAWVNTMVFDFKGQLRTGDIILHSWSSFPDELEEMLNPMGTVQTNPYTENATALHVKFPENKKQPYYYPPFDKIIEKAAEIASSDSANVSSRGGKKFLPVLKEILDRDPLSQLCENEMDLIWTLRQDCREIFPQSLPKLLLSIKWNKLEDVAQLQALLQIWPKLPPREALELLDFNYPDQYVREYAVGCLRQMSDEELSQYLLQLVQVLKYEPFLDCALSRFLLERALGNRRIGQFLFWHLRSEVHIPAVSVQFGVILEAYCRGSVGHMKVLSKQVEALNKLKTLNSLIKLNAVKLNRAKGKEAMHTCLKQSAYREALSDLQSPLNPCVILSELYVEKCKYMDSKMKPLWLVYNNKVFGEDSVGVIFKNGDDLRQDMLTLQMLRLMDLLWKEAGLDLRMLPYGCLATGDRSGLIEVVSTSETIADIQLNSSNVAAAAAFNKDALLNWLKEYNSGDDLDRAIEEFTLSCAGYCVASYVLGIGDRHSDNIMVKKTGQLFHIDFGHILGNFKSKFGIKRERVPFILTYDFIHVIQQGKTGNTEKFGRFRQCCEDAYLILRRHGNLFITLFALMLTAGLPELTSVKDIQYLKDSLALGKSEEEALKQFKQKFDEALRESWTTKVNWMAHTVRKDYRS
test protocol: Inhibition of N-terminal His6-tagged recombinant full length human p110beta/untagged recombinant full length human p85alpha expressed in baculovirus infected Sf21 insect cells at 1 uM using PIP2 as substrate measured after 80 mins by transcreener fluorescence polarization assay relative to control
reported endpoint: inhibition at 1 µM (%)
One number for each entry, in %.

| query smiles | readout number |
| --- | --- |
| O=c1c2c(Cl)ccn2nc([C@@H]2CCN2c2ncnc3[nH]cnc23)n1-c1ccccc1 | 18.5 |
| O=c1c2cccn2nc([C@@H]2CCCN2c2ncnc3[nH]cnc23)n1-c1ccccc1 | 17.4 |
| O=c1c2c(Cl)ccn2nc([C@@H]2CCCN2c2ncnc3[nH]cnc23)n1-c1cccc(F)c1 | 54.8 |

Now consider the entry below.
Recorded result, `N#Cc1c[nH]c2ncnc(N3CCC[C@H]3c3nn4cccc4c(=O)n3-c3ccccc3)c12` , inhibition at 1 µM: 47.7

###

test protocol: Inhibition of PI3Kgamma in […] RAW264.7 cells assessed as reduction in C5a-stimulated AKT phosphorylation at Ser473 residue preincubated for 30 mins followed by C5a-stimulation and measured after 5 mins
Format: cell-based
For each entry below, report its IC50 value.
One number for each entry, in nM.

| compound | unit | IC50 |
| --- | --- | --- |
| N#Cc1cnc(N)nc1N1CCC[C@H]1c1nn2ccc(Cl)c2c(=O)n1-c1ccccc1 | nM | 22 |
| O=c1c2c(Cl)ccn2nc([C@@H]2CCCN2c2ncnc3[nH]cnc23)n1-c1cccc(F)c1 | nM | 8 |
| N#Cc1cnc(N)nc1N1CC[C@H]1c1nn2ccc(Cl)c2c(=O)n1-c1ccccc1 | nM | 241 |
| CC(=O)c1c[nH]c2ncnc(N3CCC[C@H]3c3nn4ccc(Cl)c4c(=O)n3-c3cccc(F)c3)c12 | nM | 7 |

// batch mode: one IC50 value per listed entry
1. N#Cc1c[nH]c2ncnc(N3CCC[C@H]3c3nn4cccc4c(=O)n3-c3ccccc3)c12
2. O=c1c2c(Cl)ccn2nc([C@@H]2C[C@H](F)CN2c2ncnc3[nH]cnc23)n1-c1ccccc1
3. CC[C@H](Nc1ncnc2[nH]cnc12)c1nc2cccc(F)c2c(=O)n1-c1ccccc1 [IDELALISIB]

RESULT:
[40, 20, 337]
